Protein target, amino acids: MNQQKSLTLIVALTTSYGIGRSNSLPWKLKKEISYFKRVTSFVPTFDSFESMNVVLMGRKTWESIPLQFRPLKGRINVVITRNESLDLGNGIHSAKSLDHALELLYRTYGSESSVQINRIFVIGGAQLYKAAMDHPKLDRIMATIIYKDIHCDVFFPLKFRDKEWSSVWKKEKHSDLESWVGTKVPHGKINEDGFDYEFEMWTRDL
Metric: IC50
Remember to put the unit after the number in your answer.

Req: Returns the measured IC50 for the input molecule. Input: CC(C)c1c(Sc2ccc(C(=O)N[C@@H](CCC(=O)O)C(=O)O)cc2)[nH]c2nc(N)nc(N)c12
Resp: 4.8 nM

* * *

Target System: M. avium DHFR (Mycobacterium avium)
Sequence (O30463 1-181): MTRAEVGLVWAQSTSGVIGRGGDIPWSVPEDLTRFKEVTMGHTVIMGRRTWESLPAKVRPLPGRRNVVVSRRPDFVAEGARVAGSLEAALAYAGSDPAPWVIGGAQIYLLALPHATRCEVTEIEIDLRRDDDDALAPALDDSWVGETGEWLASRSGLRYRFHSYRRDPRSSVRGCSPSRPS
Method Notes: Inhibition of isolated M. avium DHFR
Metric: IC50 (nM)
Answers are plain numbers, in nM.

Req: Returns the measured IC50 for the input compound. Input: CC(C)c1c(Sc2ccc(C(=O)N[C@@H](CCC(=O)O)C(=O)O)cc2)[nH]c2nc(N)nc(N)c12
Resp: 0.391

* * *

Target System: rat liver DHFR (Rattus norvegicus)
Sequence (Q920D2 whole entry): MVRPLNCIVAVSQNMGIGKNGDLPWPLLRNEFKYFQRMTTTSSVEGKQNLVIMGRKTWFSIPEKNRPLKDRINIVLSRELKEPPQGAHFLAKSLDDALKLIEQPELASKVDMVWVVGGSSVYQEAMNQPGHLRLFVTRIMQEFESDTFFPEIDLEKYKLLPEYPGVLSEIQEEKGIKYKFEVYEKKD
Method Notes: Inhibition of isolated rat liver DHFR
Metric: pIC50
One number for each entry, as −log10 of the molar value.

Req: Returns the measured pIC50 for the input molecule. Input: CC(C)c1c(Sc2ccc(C(=O)N[C@@H](CCC(=O)O)C(=O)O)cc2)[nH]c2nc(N)nc(N)c12
Resp: 6.73

* * *

Target System: E. coli TS (Escherichia coli, UniProt P0A884)
Sequence (P0A884 whole entry): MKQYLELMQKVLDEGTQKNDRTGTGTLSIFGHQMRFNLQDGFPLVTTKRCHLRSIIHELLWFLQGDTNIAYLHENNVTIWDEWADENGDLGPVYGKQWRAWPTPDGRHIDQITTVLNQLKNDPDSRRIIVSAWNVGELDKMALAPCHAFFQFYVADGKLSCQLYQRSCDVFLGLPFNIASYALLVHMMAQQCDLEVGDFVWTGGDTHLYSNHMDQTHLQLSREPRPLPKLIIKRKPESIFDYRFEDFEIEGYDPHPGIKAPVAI
Method Notes: Inhibition of isolated E. coli TS
Please provide measured IC50 for the entries that follow.

Below, 3 compounds whose answers are already recorded.
{"columns": ["Compound", "IC50"],
 "data": [
  ["COc1ccc(Sc2[nH]c3nc(N)nc(N)c3c2C(C)C)cc1 [Compound 22]", "> 2.5 µM"],
  ["CCCc1c(Sc2ccc(OC)c(OC)c2)[nH]c2nc(N)nc(N)c12 [Compound 16]", "> 11 µM"],
  ["COc1ccc(OC)c(Sc2[nH]c3nc(N)nc(N)c3c2C(C)C)c1 [Compound 23]", "> 2.3 µM"]
]}

For each of the compounds below, note its IC50.
1. Cc1cccc(C)c1Sc1[nH]c2nc(N)nc(N)c2c1C(C)C [Compound 20]
2. CC(C)c1c(Sc2c(Cl)cccc2Cl)[nH]c2nc(N)nc(N)c12 [Compound 19]
3. CCCc1c(Sc2cc(OC)ccc2OC)[nH]c2nc(N)nc(N)c12 [Compound 15]
4. CCCc1c(Sc2c(Cl)cccc2Cl)[nH]c2nc(N)nc(N)c12 [Compound 11]

Resp:
1: > 13 µM; 2: > 2.2 µM; 3: > 12 µM; 4: > 22 µM

Req: Returns the measured IC50 for the input compound. Input: CCCc1c(Sc2ccccc2)[nH]c2nc(N)nc(N)c12 [Compound 13]
Resp: > 14 µM

* * *

Target System: E. coli TS (Escherichia coli, UniProt P0A884)
Method Notes: Inhibition of isolated E. coli TS
Metric: IC50

{"columns": ["Molecule", "Target System", "IC50"],
 "data": [
  ["COc1ccc(Sc2[nH]c3nc(N)nc(N)c3c2C(C)C)cc1OC [Compound 24]", "E. coli TS (Escherichia coli, UniProt P0A884)", "> 2.3 µM"],
  ["CCCc1c(Sc2ccc(OC)cc2)[nH]c2nc(N)nc(N)c12 [Compound 14]", "E. coli TS (Escherichia coli, UniProt P0A884)", "> 13 µM"],
  ["CCCc1c(Sc2cccc3ccccc23)[nH]c2nc(N)nc(N)c12 [Compound 17]", "E. coli TS (Escherichia coli, UniProt P0A884)", "> 12 µM"],
  ["CC(C)c1c(Sc2ccccc2)[nH]c2nc(N)nc(N)c12 [Compound 21]", "E. coli TS (Escherichia coli, UniProt P0A884)", "> 2.7 µM"],
  ["CCCc1c(Sc2ccc3ccccc3c2)[nH]c2nc(N)nc(N)c12 [Compound 18]", "E. coli TS (Escherichia coli, UniProt P0A884)", "> 12 µM"]
]}

For each of the molecules below, note its IC50.
1. CCCc1c(Sc2c(C)cccc2C)[nH]c2nc(N)nc(N)c12 [Compound 12]
2. CC(C)c1c(Sc2ccc(Cl)c(Cl)c2)[nH]c2nc(N)nc(N)c12 [Compound 27]
3. CC(C)c1c(Sc2ccc3ccccc3c2)[nH]c2nc(N)nc(N)c12 [Compound 26]

Resp:
1. > 24 µM
2. > 2.3 µM
3. > 2.4 µM

Req: Returns the measured IC50 for the input molecule. Input: CC(C)c1c(Sc2cccc3ccccc23)[nH]c2nc(N)nc(N)c12 [Compound 25]
Resp: > 12 µM
